Where these numbers come from: ChEMBL document CHEMBL3886715

Measured pIC50 of individual entries
# study.system: Acetyl-CoA carboxylase 2 (Homo sapiens, UniProt O00763)
# Sequence (O00763 whole entry): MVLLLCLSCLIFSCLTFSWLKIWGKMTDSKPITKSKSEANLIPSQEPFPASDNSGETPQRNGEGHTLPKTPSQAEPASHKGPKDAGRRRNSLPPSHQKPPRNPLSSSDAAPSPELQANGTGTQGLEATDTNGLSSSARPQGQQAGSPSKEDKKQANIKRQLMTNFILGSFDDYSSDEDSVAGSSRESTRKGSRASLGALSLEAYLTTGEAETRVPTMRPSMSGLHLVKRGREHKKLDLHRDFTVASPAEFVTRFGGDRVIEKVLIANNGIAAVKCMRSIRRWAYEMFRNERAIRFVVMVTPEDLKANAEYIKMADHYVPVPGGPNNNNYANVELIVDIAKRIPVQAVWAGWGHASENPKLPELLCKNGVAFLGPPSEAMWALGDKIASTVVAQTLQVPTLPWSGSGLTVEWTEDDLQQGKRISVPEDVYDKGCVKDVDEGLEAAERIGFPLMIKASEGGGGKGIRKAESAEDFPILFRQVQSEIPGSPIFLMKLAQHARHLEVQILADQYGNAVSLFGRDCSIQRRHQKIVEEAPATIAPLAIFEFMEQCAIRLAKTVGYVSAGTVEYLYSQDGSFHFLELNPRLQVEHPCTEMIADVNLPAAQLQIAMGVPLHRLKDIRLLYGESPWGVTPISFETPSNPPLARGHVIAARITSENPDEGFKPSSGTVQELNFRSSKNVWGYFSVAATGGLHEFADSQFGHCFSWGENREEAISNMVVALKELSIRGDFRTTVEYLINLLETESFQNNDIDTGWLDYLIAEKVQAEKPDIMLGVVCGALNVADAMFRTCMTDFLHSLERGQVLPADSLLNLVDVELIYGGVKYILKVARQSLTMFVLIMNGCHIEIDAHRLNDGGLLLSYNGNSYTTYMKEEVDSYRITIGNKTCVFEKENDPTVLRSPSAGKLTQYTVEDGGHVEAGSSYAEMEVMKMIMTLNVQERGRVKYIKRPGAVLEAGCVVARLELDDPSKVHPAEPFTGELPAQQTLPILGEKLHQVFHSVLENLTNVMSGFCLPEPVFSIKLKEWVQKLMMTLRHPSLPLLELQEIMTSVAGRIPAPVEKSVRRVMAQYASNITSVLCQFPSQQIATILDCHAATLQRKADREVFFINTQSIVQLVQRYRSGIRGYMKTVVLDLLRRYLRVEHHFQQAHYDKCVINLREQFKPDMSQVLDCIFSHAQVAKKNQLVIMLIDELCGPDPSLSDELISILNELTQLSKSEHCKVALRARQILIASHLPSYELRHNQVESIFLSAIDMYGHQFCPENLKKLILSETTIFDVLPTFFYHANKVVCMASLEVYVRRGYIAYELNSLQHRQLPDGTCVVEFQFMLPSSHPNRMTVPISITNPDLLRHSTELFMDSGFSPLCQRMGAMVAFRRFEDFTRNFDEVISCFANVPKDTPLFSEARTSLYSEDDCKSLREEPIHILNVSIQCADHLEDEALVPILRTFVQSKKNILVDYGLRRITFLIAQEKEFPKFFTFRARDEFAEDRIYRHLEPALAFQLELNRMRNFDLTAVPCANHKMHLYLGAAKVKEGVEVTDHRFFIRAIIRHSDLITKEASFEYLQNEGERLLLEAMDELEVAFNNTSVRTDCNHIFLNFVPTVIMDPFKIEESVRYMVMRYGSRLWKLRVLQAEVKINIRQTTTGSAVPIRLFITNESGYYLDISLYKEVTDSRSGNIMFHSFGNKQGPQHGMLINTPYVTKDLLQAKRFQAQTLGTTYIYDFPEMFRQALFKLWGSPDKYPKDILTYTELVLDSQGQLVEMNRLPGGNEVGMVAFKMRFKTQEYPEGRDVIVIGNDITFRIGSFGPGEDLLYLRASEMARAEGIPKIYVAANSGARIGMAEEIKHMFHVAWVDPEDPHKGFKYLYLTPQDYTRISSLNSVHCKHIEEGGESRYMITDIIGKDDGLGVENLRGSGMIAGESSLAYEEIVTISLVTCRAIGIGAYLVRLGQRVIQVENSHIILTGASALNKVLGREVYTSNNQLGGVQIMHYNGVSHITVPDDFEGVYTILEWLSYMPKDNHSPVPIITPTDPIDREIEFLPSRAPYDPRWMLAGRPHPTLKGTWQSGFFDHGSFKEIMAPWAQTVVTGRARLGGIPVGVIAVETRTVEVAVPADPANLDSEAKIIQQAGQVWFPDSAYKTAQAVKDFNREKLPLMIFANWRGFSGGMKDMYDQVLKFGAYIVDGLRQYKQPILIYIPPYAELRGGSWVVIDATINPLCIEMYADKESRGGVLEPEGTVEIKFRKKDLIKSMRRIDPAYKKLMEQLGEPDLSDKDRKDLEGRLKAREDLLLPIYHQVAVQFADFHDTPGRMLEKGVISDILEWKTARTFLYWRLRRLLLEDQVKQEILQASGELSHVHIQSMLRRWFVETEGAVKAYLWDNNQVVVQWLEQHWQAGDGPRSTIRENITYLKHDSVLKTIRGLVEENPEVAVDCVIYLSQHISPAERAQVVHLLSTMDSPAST
# procedure.summary: Spectrophotometric 384 Well Assay: Assay reactions are then carried out in 384-well plates, with hACC2 in an appropriate dilution and at final assay concentrations (f.c.) of 100 mM Tris (pH 7.5), 10 mM trisodium citrate, 25 mM KHCO3, 10 mM MgCl2, 0.5 mg/ml BSA, 3.75 mM reduced L-glutathione, 15 U/ml lactate dehydrogenase, 0.5 mM phosphoenolpyruvate, 15 U/ml pyruvate kinase, compounds at different concentrations at final DMSO concentrations of 1%.The enzymatic reaction is then started by addition of a mixture of NADH, acetyl Coenzyme A (both […].) and ATP (500 uM f.c.). The decrease of the optical density (slope S) is then determined at 25° C. at a wavelength of 340 nm over 15 minutes in a spectrophotometric reader.Each assay microtiter plate contains wells with vehicle instead of compound as controls for the non-inhibited enzyme (100% CTL; HIGH) and wells without acetyl-CoA as controls for non-specific NADH degradation (0% CTL; LOW).
pIC50: −log10 of the molar value.

compound	study.system	pIC50
C[C@H](NC(=O)N(C)C)c1ccc(CN2Cc3ccc(OCC4CC4)cc3C(F)C2)cc1 (some centres not stated)	Acetyl-CoA carboxylase 2 (Homo sapiens, UniProt O00763)	7.66
CC(=O)N[C@@H](C)c1ccc(CN2CCc3cc(OCC4CC4)ccc3C2C(=O)O)cc1 (some centres not stated)	Acetyl-CoA carboxylase 2 (Homo sapiens, UniProt O00763)	6.09
